Cited source: ChEMBL document CHEMBL1201862

Test system: M14
METHOD_SUMMARY: NCI tumour cell line growth inhibition, 48 h
The source made the active and inactive calls. Rule as the data show it: active = GI50 up to about 1.1 µM and inactive = higher.
MEASURE: GI50

COc1ccc2c(-c3ccc(OCCN(C)C)cc3)c(Oc3ccc(Cl)cc3)c(=O)oc2c1 ... 1.74 µM (inactive)
CCN(CC)C(=O)Cn1c(C)cc2ccccc21 ... > 100 µM (inactive)
CCOC(=O)c1nc2cc(C(F)(F)F)ccc2nc1Nc1ccc(OC)cc1 ... > 100 µM (inactive)
N#CC1(C#N)C(C#N)(C#N)C1(C#N)C(N)=O ... > 100 µM (inactive)
O=C1C=CC2(C=C1)CCC(=O)O2 ... 29.2 µM (inactive)
COc1cc2oc(-c3ccccc3)cc(=O)c2c(O)c1C ... > 100 µM (inactive)
C/C=C\C(CC(=O)NCCC1CN(S(=O)(=O)c2ccc(C)cc2)c2ccccc21)CC(=O)OC (stereo unspecified) ... > 100 µM (inactive)
COC(=O)C1=C(\c2ccccc2)c2ccccc2C(=O)N(C2CCCCC2)/C=C\1 ... 28.6 µM (inactive)
CCO[C@]12C[C@H](OC)[C@@]3(O)CC(C1[C@H]3O)C13C4C2[C@H](OC)C1[C@](COC)(CN4CC)[C@H](O)C[C@@H]3OC (stereo partly specified) ... > 100 µM (inactive)
CC(=O)OCC1OC(n2c(C)c(C(C)=O)c(-c3cccc4ccccc34)c(C#N)c2=S)C(OC(C)=O)C(OC(C)=O)C1OC(C)=O (stereo unspecified) ... > 100 µM (inactive)

I looked up COc1cc2c3c(c1O)-c1c(ccc(OC)c1OC)CC3N(C)CC2 (stereo unspecified) and its GI50 for M14 was > 100 µM (inactive)

Summary line: O=C1C=C(c2[nH]c3ccccc3c2C2=CC(=O)c3ccccc3C2=O)C(=O)c2ccccc21 , M14, reported GI50 = 68.7 µM (inactive)

M14 assay, compound CCOC(=O)C(NCc1ccc2c(c1)OCO2)(NC(=O)c1ccccc1)C(F)(F)F (stereo unspecified) , recorded GI50 = > 100 µM (inactive)

Lab note: compound CCOC(=O)CCC(NC(=O)OCc1ccccc1)C(=O)NC(CCC(=O)OCC)C(=O)NC(CCC(=O)OCC)C(=O)NC(CCC(=O)OCC)C(=O)NC(CCC(=O)OCC)C(=O)OCC (stereo unspecified) tested on M14; recorded GI50 was > 100 µM (inactive)

Assay M14, sample O=C(CC(NC(=O)OCc1ccccc1)C(=O)NC1Cc2ccccc2C1=O)OCc1ccccc1 (stereo unspecified) , GI50 read: > 100 µM (inactive)

---

Tested on: SK-MEL-2
METHOD_SUMMARY: NCI tumour cell line growth inhibition, 48 h
The source made the active and inactive calls. Rule as the data show it: active = GI50 up to about 1.1 µM and inactive = higher. *1 amine or outer side, *2 acyl side, *3 side chain or, on linkers, in order; H or OH if unused. Where a SMILES comes first, the peptide text is derived from it. Bridges are numbered along the chain shown (N, C = ends). Roman numbers before positions name the chains, in order. [ ]: non-standard residue; d: D form. Actinocin(9to1) = Cc1c2oc3c(C)ccc(C(=O)[*:1])c3nc-2c(C(=O)[*:2])c(N)c1=O; NMeV = CN[CH](C(=O)O)C(C)C; Sar = CNCC(=O)O
Quick reference: GI50 of the listed items.

Worked examples follow.
CC(C)(C)OC(=O)NC(CCCCNC(=O)OCc1ccccc1)C(=O)NC(CCCCNC(=O)OCc1ccccc1)C(=O)ON1C(=O)CCC1=O (configuration not stated) ... > 100 µM (inactive)
Cc1ccc(S(=O)(=O)N2c3ccccc3[C@H]3CCc4c([nH]c5ccccc45)[C@H]32)cc1 ... > 100 µM (inactive)
CCOC(=O)C(NC(=O)Nc1ccc(Cl)c(Cl)c1)C(F)(F)F (configuration not stated) ... 63 µM (inactive)
Cn1c(=O)nc2n(CCO)ccnc-2c1=O ... > 100 µM (inactive)
CN1CC2=C(OC(N)=C(C#N)C2c2cccs2)/C(=C/c2cccs2)C1 (configuration not stated) ... > 35.1 µM (inactive)

Lab note: CN(C)CCNC(=O)c1ccc(Cl)c2c(Nc3ccc(S(N)(=O)=O)cc3)c3ccccc3nc12 gave GI50 of 1.75 µM (inactive)

Record C/C=C1/CN2CCC34c5ccccc5N(C)C23C2CC1C4(C(=O)OC)C(OC(C)=O)O2 (configuration not stated) . Reported GI50: > 100 µM (inactive)

Note to self: GI50 recorded for Cc1ccc(Nc2[nH]c(=O)[nH]c(=O)c2C)cc1Cl was > 100 µM (inactive)

Form: compound = COC(=O)C1=C(C(=O)OC)C(C(=O)OC)C(C(=O)OC)C(C(=O)OC)(C(=O)OC)C(C(=O)OC)=C1C(=O)OC (configuration not stated) ; GI50 = 17.9 µM (inactive)

Kindly note the recorded GI50 for C=C(C)[C@@H]1CC[C@]2(C)CC[C@]3(C)[C@H](CC[C@@H]4[C@@]5(C)CC[C@H](O)C(C)(C)[C@@H]5CC[C@]43C)[C@@H]12 , which is > 100 µM (inactive)

Summary for this compound, Cc1c2oc3c(C)ccc(C(=O)NC4C(=O)NC(C(C)C)C(=O)N5CCCC5C(=O)N(C)CC(=O)N(C)C(C(C)C)C(=O)OC4C)c3nc-2c(C(=O)NC2C(=O)NC(C(C)C)C(=O)N3CCCC3C(=O)N(C)CC(=O)N(C)C(C(C)C)C(=O)OC2C)c(N)c1=O (configuration not stated) (I: TVP[Sar][NMeV] / II: TVP[Sar][NMeV]; ester I:1-I:C, II:1-II:C; linker I:N-II:N via Actinocin(9to1); configuration not given here) : GI50 is < 0.0001 µM (active)

Reported GI50 ( CCOC(=O)c1c(N)sc2c1C(C(=O)OCC)CCC2 (configuration not stated) ) = > 100 µM (inactive)

---

Test system: MOLT-4
METHOD_SUMMARY: NCI tumour cell line growth inhibition, 48 h
The source made the active and inactive calls. Rule as the data show it: active = GI50 up to about 1.1 µM and inactive = higher.
Pick one and only one: active, inactive

Look over these answered cases.
O=C(/C=C1/Nc2ccc([N+](=O)[O-])cc2N/C1=C/C(=O)c1ccc(Cl)cc1)c1ccc(Cl)cc1 ... inactive
c1ccc2cc(CN3CCC(C4CCN(Cc5ccc6ccccc6c5)CC4)CC3)ccc2c1 ... inactive
C/C(=C\c1csc(C)n1)[C@@H]1C[C@@H]2O[C@]2(C)CCC[C@H](C)[C@H](O)[C@@H](C)C(=O)C(C)(C)[C@@H](O)CC(=O)O1 ... active
CCN(CC)c1ccc(C2NC(=O)c3ccccc3N2)cc1 (centres undefined) ... inactive
CN(C)CCCNc1c(C#N)[n+]([O-])c2cc(Cl)ccc2[n+]1[O-] ... inactive

QUERY: Test call for this compound, please: CCOC1=C2N=C(C(CC)c3ccccc3F)N=C2C(=O)c2ccccc21 (centres undefined)
RESULT: inactive

QUERY: What did the test return for CN(C)CCOc1ccc2[nH]c(C(=O)N3CC(CCl)c4c3cc(NC(=O)OCc3ccc([N+](=O)[O-])cc3)c3ccccc43)cc2c1 (centres undefined) ?
RESULT: active

QUERY: Would you mind telling me which call this test gave C/C=C\C(CC(=O)NCCC1CN(S(=O)(=O)c2ccc(C)cc2)c2ccccc21)CC(=O)OC (centres undefined) ?
RESULT: inactive

QUERY: What was the test verdict on c1cncc(C2c3[nH]c4ccccc4c3CCN2CCN2CCCCC2)c1 (centres undefined) ?
RESULT: inactive

QUERY: Tell me the assay call for Cc1c(O)c(=O)ccn1CCc1c[nH]c2ccccc12 please.
RESULT: inactive

QUERY: Outcome logged for O=c1[nH]nc(Cc2ccc(Cl)cc2)n1/N=C/c1ccc([N+](=O)[O-])o1 in this assay:
RESULT: inactive

QUERY: For this compound, state the assay outcome: CCOC(=O)NC(OCc1ccccc1)(C(=O)OC)C(F)(F)F (centres undefined)
RESULT: inactive

QUERY: Recorded test call requested for COC(Cc1ccccc1)NC(C)=O (centres undefined)
RESULT: inactive

QUERY: Kindly provide the recorded test outcome for the following compound: CCc1ccc(Nc2ccc([N+](=O)[O-])cc2[N+](=O)[O-])cc1
RESULT: inactive

QUERY: Hello, I am checking results. What call was entered for CN(C)P(=O)(/C(N)=N/Nc1ccc([N+](=O)[O-])cc1)N(C)C ?
RESULT: inactive

---

Each entry below carries its reported GI50.
System: SN12C
METHOD_SUMMARY: NCI tumour cell line growth inhibition, 48 h
Active and inactive are the calls of the source. Rule as the data show it: active = GI50 up to about 1.1 µM and inactive = higher.

Guide cases for GI50, answers given:
CSc1nc(Cl)c2c(n1)Sc1nc3ccccc3n1N=C2 ... 37.8 µM (inactive)
c1ccc2c(c1)CCCC/C2=N/OCC1CO1 (stereo not drawn) ... 51.5 µM (inactive)
O=C(N/C(=C\c1cc(Cl)ccc1Cl)c1nc2cc(Cl)ccc2[nH]1)c1ccccc1 ... 19.5 µM (inactive)
O=c1c2nc[nH]c2n(-c2ccccc2)c(=S)n1-c1ccccc1 ... > 100 µM (inactive)
C=CCOc1cc(NC(=S)c2ccoc2C)ccc1OC ... > 100 µM (inactive)

Reported GI50 of Cn1cc(NC(=O)[C@H]2CCC(N)=N2)cc1C(=O)NCCC(=N)N : > 100 µM (inactive)

Note to self: GI50 recorded for Cc1c2oc3c(C)cnc(C(=O)NC4C(=O)NC(C(C)C)C(=O)N5CCCC5C(=O)N(C)CC(=O)N(C)C(C(C)C)C(=O)OC4C)c3nc-2c(C(=O)NC2C(=O)NC(C(C)C)C(=O)N3CCCC3C(=O)N(C)CC(=O)N(C)C(C(C)C)C(=O)OC2C)c(N)c1=O (stereo not drawn) was 1.36 µM (inactive)

Recorded result, O=C(O)C1=Cc2cccc3cccc(c23)C1=O , GI50: > 100 µM (inactive)
